Numbers sourced from patent US20250344731A1.

degree of umami enhancement (times) overview
Measurement Protocol: Sensory evaluation of umami enhancement function, naringenin-related flavonoid components in umami solution (Example 4)
Condition Info: 30 ppm in NC (sodium glutamate 0.1%); relative to NC
# value in times; strip the unit string

Compound	degree of umami enhancement (times)
O=c1cc(-c2ccc(O)cc2)oc2cc(O)cc(O)c12	1.87

Q. Identify measured degree of umami enhancement (times) associated with O=c1c(O)c(-c2ccc(O)c(O)c2)oc2cc(O)cc(O)c12 [Quercetin, reference compound]
A. 1.00

Q. Please indicate degree of umami enhancement (times) recorded for O=C1CC(c2ccccc2)Oc2cc(O)cc(O)c21 (stereo not drawn)
A. 1.67

Q. Supply degree of umami enhancement (times) value. Item: O=C1C[C@@H](c2ccc(O)cc2)Oc2cc(O)ccc21 [Liquiritigenin, (2S)-4′,7-dihydroxyflavan-4-one]
A. 1.87

Q. Name the recorded degree of umami enhancement (times) of the item O=c1cc(-c2ccc(O)c(O)c2)oc2cc(O)cc(O)c12 in your answer.
A. 1.43

Q. Please indicate degree of umami enhancement (times) recorded for COc1ccc(-c2cc(=O)c3c(O)cc(O)cc3o2)cc1 [Acacetin, 5,7-dihydroxy-4-methoxyflavone]
A. 1.67
